Measured Ki, listed per entry for reference.
SYSTEM_UNDER_TEST: human A2a receptor (Homo sapiens (Human), UniProt P29274)
Sequence (P29274 whole entry): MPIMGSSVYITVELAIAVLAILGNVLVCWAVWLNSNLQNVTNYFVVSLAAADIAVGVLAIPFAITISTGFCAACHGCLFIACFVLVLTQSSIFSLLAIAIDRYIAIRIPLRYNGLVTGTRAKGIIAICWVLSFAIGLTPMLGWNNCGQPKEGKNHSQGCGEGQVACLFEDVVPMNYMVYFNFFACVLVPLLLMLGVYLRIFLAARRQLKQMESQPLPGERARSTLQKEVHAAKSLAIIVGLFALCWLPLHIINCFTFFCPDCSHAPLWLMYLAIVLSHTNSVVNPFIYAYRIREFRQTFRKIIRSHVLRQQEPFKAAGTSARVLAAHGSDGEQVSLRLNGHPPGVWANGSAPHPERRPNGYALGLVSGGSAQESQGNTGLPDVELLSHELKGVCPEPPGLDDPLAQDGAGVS
PROTOCOL_SUMMARY: A2a competition binding assay using Scintillation Proximity technology
EXPERIMENTAL_CONTEXT: 0.25 μg of membranes from HEK293 cells expressing the human A2a receptor
Just the number plus its unit, please.

>>> result("COc1cccc2c(C(=O)NCc3ncc(C)cc3C)nc(N)nc12")
"1.5 nM"

Task: Entry COc1cccc2c(C(=O)NCc3cccc(C)n3)nc(N)nc12 : reported Ki = ?
Result: 0.5 nM

Task: And then COc1cccc2c(C(=O)NC(C)(C)c3ccccn3)nc(N)nc12 , what is it?
Result: 415 nM

Task: And then COc1cccc2c(C(=O)NC3(c4ccccn4)CC3)nc(N)nc12 , what is it?
Result: 929 nM

These data points were gathered from patent US10138212B2.
